Quick reference for IC50 among some molecules
- Assay target: Cholinesterase (Equus caballus, UniProt P81908)
- Sequence (P81908 whole entry): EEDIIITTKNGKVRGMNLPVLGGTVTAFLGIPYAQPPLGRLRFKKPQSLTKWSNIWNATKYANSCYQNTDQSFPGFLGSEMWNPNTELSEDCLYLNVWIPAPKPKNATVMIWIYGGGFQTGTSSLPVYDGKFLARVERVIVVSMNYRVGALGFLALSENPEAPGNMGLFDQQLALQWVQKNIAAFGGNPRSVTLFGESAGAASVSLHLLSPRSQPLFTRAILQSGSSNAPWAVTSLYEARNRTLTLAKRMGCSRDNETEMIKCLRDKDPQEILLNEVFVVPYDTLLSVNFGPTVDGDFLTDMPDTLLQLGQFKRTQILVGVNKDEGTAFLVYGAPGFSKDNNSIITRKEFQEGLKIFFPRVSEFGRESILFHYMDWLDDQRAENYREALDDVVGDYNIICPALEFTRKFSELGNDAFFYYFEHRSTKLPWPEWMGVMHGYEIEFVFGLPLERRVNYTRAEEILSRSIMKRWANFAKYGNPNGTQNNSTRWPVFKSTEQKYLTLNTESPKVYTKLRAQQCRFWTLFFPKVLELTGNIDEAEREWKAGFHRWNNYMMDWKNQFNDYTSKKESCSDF
# value in µM; strip the unit string

smiles_input=CN1c2ccccc2C(c2ccccc2)c2ccccc21 assay_target="Cholinesterase (Equus caballus, UniProt P81908)" units_label=µM quantitative_readout=62.1
smiles_input=CN1c2ccccc2C(N2CCSCC2)c2ccccc21 assay_target="Cholinesterase (Equus caballus, UniProt P81908)" units_label=µM quantitative_readout=0.84
smiles_input=Cc1ccc(-c2c3ccccc3[n+](C)c3ccccc23)cc1 assay_target="Cholinesterase (Equus caballus, UniProt P81908)" units_label=µM quantitative_readout=40.7
smiles_input=C[n+]1c2ccccc2c(-c2cc(C(C)(C)C)cc(C(C)(C)C)c2O)c2ccccc21 assay_target="Cholinesterase (Equus caballus, UniProt P81908)" units_label=µM quantitative_readout=2.74
smiles_input=CN1c2ccccc2C(n2cnc([N+](=O)[O-])n2)c2ccccc21 assay_target="Cholinesterase (Equus caballus, UniProt P81908)" units_label=µM quantitative_readout=1.17
smiles_input=C[n+]1c2ccccc2c(-c2ccccc2)c2ccccc21 assay_target="Cholinesterase (Equus caballus, UniProt P81908)" units_label=µM quantitative_readout=51.9
smiles_input=CCCCNc1c2ccccc2[n+](C)c2ccccc12 assay_target="Cholinesterase (Equus caballus, UniProt P81908)" units_label=µM quantitative_readout=15.7
smiles_input=C[n+]1c2ccccc2c(N)c2ccccc21 assay_target="Cholinesterase (Equus caballus, UniProt P81908)" units_label=µM quantitative_readout=4.83

Enquiry: So what's the measured IC50 for this one? `CC(=O)Nc1ccc(-c2c3ccccc3[n+](C)c3ccccc23)cc1`
Return: 35.1

Enquiry: So what's the measured IC50 for this one? `CN1c2ccccc2C(N2CCOCC2)c2ccccc21`
Return: 0.46

Enquiry: So what's the measured IC50 for this one? `C[n+]1c2ccccc2c(-c2c(O)ccc3ccccc23)c2ccccc21`
Return: 50.8

Enquiry: So what's the measured IC50 for this one? `CCN(CC)c1ccc(-c2c3ccccc3[n+](C)c3ccccc23)cc1`
Return: 3.35

###

- Assay target: UniProt:Q29550
- Sequence (Q29550 whole entry): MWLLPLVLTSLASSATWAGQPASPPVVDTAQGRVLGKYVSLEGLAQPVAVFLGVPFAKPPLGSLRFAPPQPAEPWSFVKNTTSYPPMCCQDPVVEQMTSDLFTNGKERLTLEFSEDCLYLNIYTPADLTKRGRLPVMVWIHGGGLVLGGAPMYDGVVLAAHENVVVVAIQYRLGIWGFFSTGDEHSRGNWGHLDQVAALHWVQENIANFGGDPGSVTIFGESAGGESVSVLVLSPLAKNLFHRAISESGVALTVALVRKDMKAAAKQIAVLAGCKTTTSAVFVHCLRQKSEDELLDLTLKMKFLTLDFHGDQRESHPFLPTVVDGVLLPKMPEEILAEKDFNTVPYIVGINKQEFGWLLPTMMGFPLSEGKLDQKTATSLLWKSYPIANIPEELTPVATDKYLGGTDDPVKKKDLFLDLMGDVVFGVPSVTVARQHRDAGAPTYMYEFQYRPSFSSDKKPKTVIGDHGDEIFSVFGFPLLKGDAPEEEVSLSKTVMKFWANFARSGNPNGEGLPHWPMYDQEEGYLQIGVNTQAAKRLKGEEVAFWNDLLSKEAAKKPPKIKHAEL
- Measurement protocol: in vitro
- Applied conditions: pig, probe 4-nitrophenol acetate
- Description: Inhibition of pig liver carboxylesterase at 20 uM using 4-nitrophenol acetate as substrate by spectrophotometric analysis
Outcome: True for inhibition at 20 µM of at least 20%; False for anything lower.

smiles_input=CN1c2ccccc2C(N2CCOCC2)c2ccccc21 cat=False
smiles_input=CN1c2ccccc2C(n2cncn2)c2ccccc21 cat=False
smiles_input=CN1c2ccccc2C(c2cccs2)c2ccccc21 cat=False

Enquiry: // inclusive: inhibition at 20 µM at least 20%? input: `Cc1ccc(-c2c3ccccc3[n+](C)c3ccccc23)cc1`
Return: False

Enquiry: // inclusive: inhibition at 20 µM at least 20%? input: `CN1c2ccccc2C(c2cc(C(C)(C)C)c(O)c(C(C)(C)C)c2)c2ccccc21`
Return: True

Enquiry: // inclusive: inhibition at 20 µM at least 20%? input: `CN1c2ccccc2C(n2nnc3ccccc32)c2ccccc21`
Return: False

Enquiry: // inclusive: inhibition at 20 µM at least 20%? input: `CC(=O)Nc1ccc(C2c3ccccc3N(C)c3ccccc32)cc1`
Return: False

Enquiry: // inclusive: inhibition at 20 µM at least 20%? input: `C[n+]1c2ccccc2c(-c2ccc(NC(=O)C(F)(F)F)cc2)c2ccccc21`
Return: False

###

- Assay target: UniProtKB P22303
- Measurement protocol: Inhibition of human erythrocyte AChE at 20 uM using acetylthiocholine iodide as substrate preincubated for 10 mins followed by substrate addition Ellman's method
Calls of active or inactive are those of the source. No cut-off for these calls is given here.
Quantity: inhibition

smiles_input=CN1c2ccccc2C(c2ccc(N)cc2)c2ccccc21 quantity=inhibition result=inactive
smiles_input=CN1c2ccccc2C(c2ccc(NC(=O)C(F)(F)F)cc2)c2ccccc21 quantity=inhibition result=inactive
smiles_input=C[n+]1c2ccccc2c(-c2c(O)ccc3ccccc23)c2ccccc21 quantity=inhibition result=7.3%
smiles_input=COc1ccc(C2c3ccccc3N(C)c3ccccc32)cc1 quantity=inhibition result=9.3%

###

- Assay target: Acetylcholinesterase (Homo sapiens)
- Sequence (P22303 whole entry): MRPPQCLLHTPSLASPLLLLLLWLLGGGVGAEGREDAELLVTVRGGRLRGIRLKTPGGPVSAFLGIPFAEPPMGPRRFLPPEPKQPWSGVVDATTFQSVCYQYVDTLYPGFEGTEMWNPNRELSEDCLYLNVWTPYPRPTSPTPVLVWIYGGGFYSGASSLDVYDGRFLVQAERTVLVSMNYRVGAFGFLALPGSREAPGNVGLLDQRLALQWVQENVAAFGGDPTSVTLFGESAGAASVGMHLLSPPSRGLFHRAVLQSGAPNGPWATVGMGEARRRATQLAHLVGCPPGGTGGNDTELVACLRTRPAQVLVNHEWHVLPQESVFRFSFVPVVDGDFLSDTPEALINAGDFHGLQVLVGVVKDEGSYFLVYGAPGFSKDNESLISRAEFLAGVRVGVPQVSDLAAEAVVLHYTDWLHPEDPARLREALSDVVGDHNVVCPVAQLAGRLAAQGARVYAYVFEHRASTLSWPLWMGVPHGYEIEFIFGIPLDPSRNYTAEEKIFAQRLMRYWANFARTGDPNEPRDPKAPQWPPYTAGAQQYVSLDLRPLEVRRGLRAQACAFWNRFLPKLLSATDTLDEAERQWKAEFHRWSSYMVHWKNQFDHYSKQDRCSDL
- Measurement protocol: Inhibition of human erythrocyte AChE at 20 uM using acetylthiocholine iodide as substrate preincubated for 10 mins followed by substrate addition Ellman's method
The source made the active and inactive calls. The calls are words filed in the database; no cut-off is given here.
Quantity: inhibition

Solved cases below.
smiles_input=CC(=O)Nc1ccc(C2c3ccccc3N(C)c3ccccc32)cc1 result=inactive
smiles_input=Cc1ccc(C2c3ccccc3N(C)c3ccccc32)cc1 result=5.1%
smiles_input=O=[N+]([O-])c1ccc(OP(=O)(O)Oc2ccc([N+](=O)[O-])cc2)cc1 result=inactive
smiles_input=CCCCNc1c2ccccc2[n+](C)c2ccccc12 result=16.8%
smiles_input=CN1c2ccccc2C(c2cc(C(C)(C)C)cc(C(C)(C)C)c2O)c2ccccc21 result=inactive
smiles_input=CN1c2ccccc2C(c2cccs2)c2ccccc21 result=inactive
smiles_input=C[n+]1c2ccccc2c(-c2cc(C(C)(C)C)cc(C(C)(C)C)c2O)c2ccccc21 result=16.7%
smiles_input=CN1c2ccccc2C(c2ccc(F)cc2)c2ccccc21 result=inactive
smiles_input=CN1c2ccccc2C(c2cc(C(C)(C)C)c(O)c(C(C)(C)C)c2)c2ccccc21 result=inactive
smiles_input=CN1c2ccccc2C(c2ccccc2)c2ccccc21 result=inactive

Enquiry: So what's the measured inhibition for this one? `CN1c2ccccc2C(n2c3ccccc3c3ccccc32)c2ccccc21`
Return: 5.6%

###

- Assay target: Cholinesterase (Equus caballus)
- Measurement protocol: Non-competitive inhibition of equine serum BChE using butyrylthiocholine iodide as substrate preincubated for 10 mins followed by substrate addition by Lineweaver-Burk double reciprocal kinetic plot analysis
Quick reference for alphaKi among some compounds
# value in µM; strip the unit string

smiles_input=CCN(CC)c1ccc(-c2c3ccccc3[n+](C)c3ccccc23)cc1 quantitative_readout=4.22
smiles_input=C[n+]1c2ccccc2c(-c2ccc(N)cc2)c2ccccc21 quantitative_readout=55.4
smiles_input=C[n+]1c2ccccc2c(-c2cc(C(C)(C)C)cc(C(C)(C)C)c2O)c2ccccc21 quantitative_readout=4.75
smiles_input=CN1c2ccccc2C(n2cncn2)c2ccccc21 quantitative_readout=0.72
smiles_input=CN1c2ccccc2C(N2CCOCC2)c2ccccc21 quantitative_readout=1.17

Enquiry: So what's the measured alphaKi for this one? `CN1c2ccccc2C(n2nnc3ccccc32)c2ccccc21`
Return: 2.13

Enquiry: So what's the measured alphaKi for this one? `CN1c2ccccc2C(N2CCSCC2)c2ccccc21`
Return: 1.31

###

Quick reference for inhibition among some compounds
- Assay target: Cholinesterase (Equus caballus)
- Measurement protocol: Inhibition of equine serum BChE at 20 uM using butyrylthiocholine iodide as substrate preincubated for 10 mins followed by substrate addition by Ellman's method

Solved cases below.
smiles_input=Cc1cc(-c2c3ccccc3[n+](C)c3ccccc23)cc(C)c1C quantity=inhibition result=14.2%
smiles_input=CN1c2ccccc2C(c2cc(C(C)(C)C)cc(C(C)(C)C)c2O)c2ccccc21 quantity=inhibition result=13.4%

Shift focus to the following entry.
Enquiry: So what's the measured inhibition for this one? `CN1c2ccccc2C(c2cc(C(C)(C)C)c(O)c(C(C)(C)C)c2)c2ccccc21`
Return: 10.4%

###

Quick reference for alphaKi among some molecules
- Assay target: Acetylcholinesterase (Homo sapiens)
- Measurement protocol: Non-competitive inhibition of human […] AChE using acetylthiocholine iodide as substrate preincubated for 10 mins followed by substrate addition by Lineweaver-Burk double reciprocal kinetic plot analysis
# value in µM; strip the unit string

Solved cases below.
smiles_input=CN1c2ccccc2C(N2CCOCC2)c2ccccc21 units_label=µM quantitative_readout=19.6
smiles_input=C[n+]1c2ccccc2c(-c2ccc(N)cc2)c2ccccc21 units_label=µM quantitative_readout=8.95
smiles_input=CCN(CC)c1ccc(-c2c3ccccc3[n+](C)c3ccccc23)cc1 units_label=µM quantitative_readout=28

Shift focus to the following entry.
Enquiry: So what's the measured alphaKi for this one? `CN1c2ccccc2C(n2nnc3ccccc32)c2ccccc21`
Return: 17.9

###

The reader will find IC50 measurements below, all made with Acetylcholinesterase (Homo sapiens).

Solved cases below.
smiles_input=COc1ccc(C2c3ccccc3N(C)c3ccccc32)cc1 quantity=IC50 result="> 20 µM"
smiles_input=CN1c2ccccc2C(N2CCSCC2)c2ccccc21 quantity=IC50 result="11.8 µM"
smiles_input=CC(=O)Nc1ccc(-c2c3ccccc3[n+](C)c3ccccc23)cc1 quantity=IC50 result="54.3 µM"
smiles_input=C[n+]1c2ccccc2c(N)c2ccccc21 quantity=IC50 result="39.5 µM"
smiles_input=CCCCNc1c2ccccc2[n+](C)c2ccccc12 quantity=IC50 result="> 20 µM"

Shift focus to the following entry.
Enquiry: Please state recorded IC50 (tested on Acetylcholinesterase (Homo sapiens)) of `CN1c2ccccc2C(n2c3ccccc3c3ccccc32)c2ccccc21`
Return: > 20 µM

###

Quick reference for pKi among some compounds
- Assay target: Cholinesterase (Equus caballus)
pKi (log units): -log10 of the concentration in mol/L.

Solved cases below.
smiles_input=CN1c2ccccc2C(N2CCOCC2)c2ccccc21 quantitative_readout=6.39
smiles_input=CN1c2ccccc2C(n2nnc3ccccc32)c2ccccc21 quantitative_readout=6.31
smiles_input=C[n+]1c2ccccc2c(-c2ccc(N)cc2)c2ccccc21 quantitative_readout=4.72
smiles_input=CCN(CC)c1ccc(-c2c3ccccc3[n+](C)c3ccccc23)cc1 quantitative_readout=6.03
smiles_input=C[n+]1c2ccccc2c(-c2cc(C(C)(C)C)cc(C(C)(C)C)c2O)c2ccccc21 quantitative_readout=5.84

Enquiry: So what's the measured pKi for this one? `CN1c2ccccc2C(N2CCSCC2)c2ccccc21`
Return: 6.46

Enquiry: So what's the measured pKi for this one? `CN1c2ccccc2C(n2cncn2)c2ccccc21`
Return: 6.80
